// tissue uptake at 1 h lookup, one value per entry
Assay: Biodistribution of 67Ga-radiolabeled peptides
Set-up: species or system mouse
Details: female, CD1, mouse, in vivo, iv, 100 uCi, total radioactivity, Tissue distribution, Lung
Residues, ends and D or L forms follow the SMILES beside them. *: point of attachment. NODAGA = O=C(O)CN1CCN(CC(=O)O)CCN(C(CCC(=O)*)C(=O)O)CC1
Write the value in %ID/g as a bare number.

The examples below pair each entry with its known result.
INSERT INTO assay_data (compound, observed_measurement) VALUES
  ('CC[C@H](C)[C@H](NC(=O)[C@H](C)NC(=O)CNC(=O)[C@H](CO)NC(=O)[C@H](CCCNC(=N)N)NC(=O)[C@H](Cc1ccc(O)cc1)NC(=O)[C@H](CCCCN)NC(=O)CCC(C(=O)O)N1CCN(CC(=O)O)CCN(CC(=O)O)CC1)C(=O)N[C@H](C(=O)N[C@H](C(=O)NCC(=O)N[C@@H](Cc1ccc(O)cc1)C(N)=O)[C@@H](C)CC)[C@@H](C)O (stereo partly shown) [67Ga-BBBpS_2, metal not drawn] ({NODAGA}-KYRSGAITIGY-NH2)', 1.7),
  ('CC[C@H](C)[C@H](NC(=O)[C@H](Cc1c[nH]cn1)NC(=O)CCC(C(=O)O)N1CCN(CC(=O)O)CCN(CC(=O)O)CC1)C(=O)N[C@@H](CCC(N)=O)C(=O)N[C@@H](CC(C)C)C(=O)N[C@@H](CO)C(=O)N1CCC[C@H]1C(=O)N[C@@H](Cc1ccccc1)C(=O)N[C@@H](CO)C(=O)N[C@@H](CCC(N)=O)C(=O)N[C@@H](CO)C(=O)N[C@@H](Cc1c[nH]c2ccccc12)C(=O)N[C@@H](CCCNC(=N)N)C(N)=O (stereo partly shown) [67Ga-BBBpS_5, metal not drawn] ({NODAGA}-HIQLSPFSQSWR-NH2)', 1.2);

Item CC(C)C[C@H](NC(=O)[C@H](Cc1c[nH]c2ccccc12)NC(=O)[C@H](Cc1ccccc1)NC(=O)[C@H](CCC(N)=O)NC(=O)[C@H](C)NC(=O)[C@H](CO)NC(=O)[C@H](CC(=O)O)NC(=O)[C@@H]1CCCN1C(=O)[C@H](CCCNC(=N)N)NC(=O)[C@H](CC(N)=O)NC(=O)CCC(C(=O)O)N1CCN(CC(=O)O)CCN(CC(=O)O)CC1)C(=O)N[C@@H](Cc1c[nH]cn1)C(=O)N[C@@H](Cc1c[nH]cn1)C(N)=O (stereo partly shown) [67Ga-BBBpS_9, metal not drawn] ({NODAGA}-NRPDSAQFWLHH-NH2) has what recorded tissue uptake at 1 h?
0.7

Also, CC[C@H](C)[C@H](NC(=O)[C@H](C)NC(=O)CNC(=O)[C@H](CCCCN)NC(=O)[C@H](Cc1ccc(O)cc1)NC(=O)[C@H](CCCCN)NC(=O)CCC(C(=O)O)N1CCN(CC(=O)O)CCN(CC(=O)O)CC1)C(=O)N[C@H](C(=O)NCC(=O)N[C@@H](CC(N)=O)C(=O)N[C@H](C(=O)N[C@@H](CCCCN)C(N)=O)[C@@H](C)CC)[C@@H](C)CC (stereo partly shown) [67Ga-BBBpS_1, metal not drawn] ({NODAGA}-KYKGAIIGNIK-NH2) please.
2.5

Data origin: paper PMC11131246
